Item-by-item account of relative viability
Tested on: SK-MES-1
experimental-protocol: relative viability (nuclei count vs DMSO), 5 days (fraction); higher = more cells survive
condition-details: first compound 0.04 µM
experimental-endpoint: relative viability

>>> result_number("Cc1sc2c(c1C)C(c1ccc(Cl)cc1)=N[C@@H](CC(=O)OC(C)(C)C)c1nnc(C)n1-2 [JQ1] + Cc1nc(Nc2ncc(C(=O)Nc3c(C)cccc3Cl)s2)cc(N2CCN(CCO)CC2)n1 [Dasatinib] (partner 0.075 µM)")
0.338
>>> result_number("Cc1sc2c(c1C)C(c1ccc(Cl)cc1)=N[C@@H](CC(=O)OC(C)(C)C)c1nnc(C)n1-2 [JQ1] + CS(=O)(=O)N1CCN(Cc2cc3nc(-c4cccc5[nH]ncc45)nc(N4CCOCC4)c3s2)CC1 [Pictilisib] (partner 1 µM)")
0.351
>>> result_number("Cc1sc2c(c1C)C(c1ccc(Cl)cc1)=N[C@@H](CC(=O)OC(C)(C)C)c1nnc(C)n1-2 [JQ1] + O=C(CCCCCCC(=O)Nc1ccccc1)NO [Vorinostat] (partner 1 µM)")
1.1
>>> result_number("Cc1sc2c(c1C)C(c1ccc(Cl)cc1)=N[C@@H](CC(=O)OC(C)(C)C)c1nnc(C)n1-2 [JQ1] + CC(=O)Nc1cccc(-n2c(=O)n(C3CC3)c(=O)c3c(Nc4ccc(I)cc4F)n(C)c(=O)c(C)c32)c1 [Trametinib] (partner 0.02 µM)")
0.446
